tested on: T1, AahII toxin of Androctonus australis hector (Androctonus australis hector, UniProt P01484 20-83)
T1 construct: mature; also called Aahll
T1 sequence: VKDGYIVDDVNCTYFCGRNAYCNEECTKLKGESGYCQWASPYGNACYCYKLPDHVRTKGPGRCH
protocol summary: SPR (BIAcore), AahII immobilised on CM5 chip, Nb in mobile phase
quantity name: Kd (nM)

binder	result value
NbAahII39 (VHH, also called cluster G) VHH: QVQLVESGGGSVQAGGSLRLSCAASGYTCTKFNMGWYRQAPGKERKMVATIRRDGTTYYADSVKGRFTISQDNAKNTVYLQMTSLKPEDSAMYYCSFRCVTPSLPYWGQGTQVTVSS	0.16
NbAahII18 (VHH, also called NbAahlllδ; NbAahll l δ) VHH: QVQLQESGGGSVQAGGSLRLSCAASGDSYSNYYMAWFRQAPGKEREGVAHINRSGRITLYADSVKGRFTMSRDNAKNTVYLQMNSLRPEDTAIYYCAAGVRTHMPPLASYGFDYWGQGTQVTVSS	0.18
NbAahII36 (VHH, also called cluster C) VHH: QVQLVESGGGSVQAGGSLRLSCAASGYTFSNYRMGWFRQAPGKECELVSTILTDGSTNYADSVKGRFTISRDNAKNTVYLLMNNLKAEDTAVYYCAAGNSRKGYLRRCGGTDFGYWGQGTQVTVSS	0.67
NbAahII17 (VHH, also called cluster D) VHH: DVQLVESGGGSVQAGGSLRLSCAASGVTLNNYCVGWFRQAPGKEREGVAAFKSGGSFTYYADSVKGRFTISKDNAKNTMYLQMNSLNSDDTAMYYCAVTRNSCLGLAKFRPSSYNYWGQGTQVTVSS	0.61
NbAahII19 (VHH, Purified from E. coli periplasm with His6; also called cluster I) VHH: QVQLQESGGGLVQPGGSLRLSCAASGFSFNIYAMSWVRQAPGKQFEWVSGIHPDGRSTYYTDSVKGRFTISRDNAKNTLYLQLDSLKTEDTAMYYCAKGVLTKYVGSARGQGTQVTVSS	2.39
NbAahII12 (VHH, Purified from E. coli periplasm with His6; also called cluster I) VHH: QVQLVESGGGLVQPGGSLRLSCAASGFSFNIYAMSWVRQAPGKQFEWVSGIHPNGRSTYYTDSVKGRFTISRDNAKNTLYLQLDSLKTEDTAMYYCAKGVLTKYVGGARGQGTQVTVSS	0.28
